Recorded values, source ChEMBL document CHEMBL1139230.

measured on: Glucagon receptor (Homo sapiens)
Sequence (P47871 whole entry): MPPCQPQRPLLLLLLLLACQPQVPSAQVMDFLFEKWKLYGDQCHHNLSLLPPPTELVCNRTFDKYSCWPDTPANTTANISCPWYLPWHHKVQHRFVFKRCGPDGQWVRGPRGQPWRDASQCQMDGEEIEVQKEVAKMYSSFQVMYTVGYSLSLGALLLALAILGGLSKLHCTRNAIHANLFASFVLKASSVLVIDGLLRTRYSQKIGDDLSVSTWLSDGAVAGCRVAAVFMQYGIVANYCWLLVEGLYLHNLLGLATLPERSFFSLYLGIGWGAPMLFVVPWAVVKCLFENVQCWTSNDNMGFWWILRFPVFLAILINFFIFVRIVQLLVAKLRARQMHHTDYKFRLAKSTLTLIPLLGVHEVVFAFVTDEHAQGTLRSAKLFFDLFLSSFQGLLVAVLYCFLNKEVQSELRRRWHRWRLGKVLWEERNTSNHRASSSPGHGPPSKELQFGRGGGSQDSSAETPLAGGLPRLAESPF
protocol notes: Inhibition of human cloned glucagon receptor expressed in BHK cells
Could you please report measured pIC50 for the items listed next?
Reminder that pIC50 is minus the log10 of a molar concentration.

Query :: Look up and state reported pIC50 for CC(C)c1ccc(NC(=O)N(Cc2ccc(C(=O)NCCC(=O)O)cc2)[C@H]2CC[C@H](C(C)(C)C)CC2)cc1
Result :: 7.46

Query :: Look up and state reported pIC50 for O=C(O)CCNC(=O)c1ccc(CN(C(=O)Nc2ccc(OC(F)(F)F)cc2)c2ccc(C3CCCCC3)cc2)cc1
Result :: 7.21

Query :: Look up and state reported pIC50 for O=C(O)CCNC(=O)c1ccc(CN(CCC(c2ccccc2)c2ccccc2)C(=O)c2ccc(Cl)nc2)cc1
Result :: 5.15

Query :: Look up and state reported pIC50 for CC(C)(C)[C@H]1CC[C@H](N(Cc2ccc(C(=O)NCCC(=O)O)cc2)C(=O)Nc2ccc(C#N)cc2)CC1
Result :: 5.98

Query :: Look up and state reported pIC50 for CCCCc1ccc(NC(=O)N(Cc2ccc(C(=O)NCCC(=O)O)cc2)C2Cc3ccccc3C2)cc1
Result :: 6.75

Query :: Look up and state reported pIC50 for O=C(O)CCNC(=O)c1ccc(CN(C(=O)Nc2cc(Cl)cc(Cl)c2)c2ccc(C3=CCCCC3)cc2)cc1
Result :: 7.57

Query :: Look up and state reported pIC50 for CC(C)(C)C1CCC(N(Cc2ccc(C(=O)NCC(=O)O)cc2)C(=O)Nc2ccc(OC(F)(F)F)cc2)CC1 (stereo unspecified)
Result :: 5.77

Query :: Look up and state reported pIC50 for CC(C)(C)C1CCC(N(Cc2ccc(C(=O)NCC(=O)NO)cc2)C(=O)Nc2ccc(OC(F)(F)F)cc2)CC1 (stereo unspecified)
Result :: 5.53

Query :: Look up and state reported pIC50 for CCCCC(CC)N(Cc1ccc(C(=O)NCCC(=O)O)cc1)C(=O)Nc1ccc(OC(F)(F)F)cc1 (stereo unspecified)
Result :: 6.85

Query :: Look up and state reported pIC50 for O=C(O)CCNC(=O)c1ccc(CN(C(=O)Nc2ccc(SC(F)(F)F)cc2)C2Cc3ccccc3C2)cc1
Result :: 6.58

Query :: Look up and state reported pIC50 for CC(C)(C)[C@H]1CC[C@H](N(Cc2ccc(C(=O)NCCC(=O)O)cc2)C(=O)Nc2ccc(OC(F)(F)F)cc2C#N)CC1
Result :: 7.25

Query :: Look up and state reported pIC50 for CCCC1CCC(N(Cc2ccc(C(=O)NCCC(=O)O)cc2)C(=O)Nc2ccc(OC(F)(F)F)cc2)CC1 (stereo unspecified)
Result :: 6.91

Query :: Look up and state reported pIC50 for CC(C)(C)[C@H]1CC[C@H](N(Cc2ccc(C(=O)NCCC(=O)O)cc2)C(=O)Nc2ccc(OC(F)(F)F)cc2)CC1
Result :: 7.26
